# System: SARS-CoV-2
# Experimental protocol: microbe, parasite or virus in culture
# Assay type: cell-based, SARS-CoV-2 (Lineage A, B.1)
# Measurement context: Severe acute respiratory syndrome coronavirus 2; vRNA (qPCR); […]; read-out: EC50 against SARS-CoV-2 in HNECs
pEC50: −log10 of the molar value.
Metric: pEC50

-- ask I have this compound here, "C[C@H](NC(=O)[C@H](Cc1ccc(O)cc1)NC(=O)OCc1ccccc1)C(=O)C=[N+]=[N-]" , and I need its recorded pEC50.
-- reply < 4.70

* * *

# Experimental protocol: in vitro
# Measurement context: human, Caco-2
Metric: CC50

-- ask I have this compound here, "C[C@H](NC(=O)[C@H](Cc1ccc(O)cc1)NC(=O)OCc1ccccc1)C(=O)C=[N+]=[N-]" , and I need its recorded CC50.
-- reply > 50 µM

* * *

# Experimental protocol: Cytotoxicity in uninfected A549-hACE2 cells (ATPlite)
# Measurement context: human, A549-hACE2 cells
Metric: CC50

Below, 2 compounds whose answers are already recorded.
>>> print(df.to_string())
                                   compound   result
0  CC(C)C(=O)OC[C@H]1O[C@@H](n2ccc(NO)nc2=O)[C@H](O)[C@@H]1O [Molnu-Piravir, molnupiravir]  > 50 µM
1  C[C@H](NC(=O)[C@H](Cc1ccc(O)cc1)NC(=O)OCc1ccccc1)C(=O)C=[N+]=[N-]  > 25 µM

Please look at the following compound next.
-- ask I have this compound here, CCC(CC)COC(=O)[C@H](C)N[P@](=O)(OC[C@H]1O[C@@](C#N)(c2ccc3c(N)ncnn23)[C@H](O)[C@@H]1O)Oc1ccccc1 [Remdesivir, remdesivir] , and I need its recorded CC50.
-- reply > 25 µM

* * *

# Experimental protocol: in vitro
# Measurement context: African green monkey
Metric: CC50

-- ask I have this compound here, CC(C)C(=O)OC[C@H]1O[C@@H](n2ccc(NO)nc2=O)[C@H](O)[C@@H]1O [Molnu-Piravir, molnupiravir] , and I need its recorded CC50.
-- reply > 100 µM

-- ask I have this compound here, CCC(CC)COC(=O)[C@H](C)N[P@](=O)(OC[C@H]1O[C@@](C#N)(c2ccc3c(N)ncnn23)[C@H](O)[C@@H]1O)Oc1ccccc1 [Remdesivir, remdesivir] , and I need its recorded CC50.
-- reply > 100 µM

* * *

Entries below carry reported CC50 on VeroE6-eGFP cells.

In [3]: df
Out[3]:
                              sample_smiles   result
0  COc1cccc2[nH]c(C(=O)N[C@@H](CC(C)C)C(=O)N[C@@H](C[C@@H]3CCNC3=O)C(=O)CO)cc12  > 20 µM

Please look at the following compound next.
-- ask Which measured CC50 belongs to "CN1CCN(C(=O)N[C@@H](Cc2ccccc2)C(=O)N[C@H](/C=C/S(=O)(=O)c2ccccc2)CCc2ccccc2)CC1" , tested on VeroE6-eGFP cells?
-- reply ~50 µM

* * *

# Experimental system: cathepsin L (Homo sapiens, UniProt P07711)
# Sequence (P07711 114-333): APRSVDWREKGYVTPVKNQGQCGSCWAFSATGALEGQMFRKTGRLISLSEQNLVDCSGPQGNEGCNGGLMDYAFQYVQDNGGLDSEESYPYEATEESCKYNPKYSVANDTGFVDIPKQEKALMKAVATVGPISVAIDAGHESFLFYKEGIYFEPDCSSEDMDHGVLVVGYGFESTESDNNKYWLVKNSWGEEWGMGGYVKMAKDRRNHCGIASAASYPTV
# Experimental protocol: Enzymatic cathepsin L inhibition assay (Eurofins)
# Measurement context: enzymatic assay, substrate Z-Phe-Arg AMC, one experiment
Metric: EC50

-- ask I have this molecule here, "C[C@H](NC(=O)[C@H](Cc1ccc(O)cc1)NC(=O)OCc1ccccc1)C(=O)C=[N+]=[N-]" , and I need its recorded EC50.
-- reply < 50 nM

* * *

# Test system: SARS-CoV-2
# Experimental protocol: Immunofluorescence (HCI, spike stain) antiviral assay, SARS-CoV-2 in A549-hACE2
# Type: cell-based
# Measurement context: Severe acute respiratory syndrome coronavirus 2, 24 h, read-out: EC50 against SARS-CoV-2 in A549-hACE2
Readings of EC50 for the listed molecules
Enter your answer as a number in nM; do not include the unit.

In [3]: df
Out[3]:
                                   molecule  scale_unit  result
0  C[C@H](NC(=O)[C@H](Cc1ccc(O)cc1)NC(=O)OCc1ccccc1)C(=O)C=[N+]=[N-]          nM      46

Please look at the following molecule next.
-- ask I have this molecule here, CCC(CC)COC(=O)[C@H](C)N[P@](=O)(OC[C@H]1O[C@@](C#N)(c2ccc3c(N)ncnn23)[C@H](O)[C@@H]1O)Oc1ccccc1 [Remdesivir, remdesivir] , and I need its recorded EC50.
-- reply 180

* * *

# Test system: HCoV-229E
# Experimental protocol: microbe, parasite or virus in culture
# Assay type: cell-based, human coronavirus 229E
# Measurement context: Human coronavirus 229E, 24 h, HCI (dsRNA stain), 24 h at 35 °C, read-out: EC50 against HCoV-229E in HeLa-hACE2
Readings of pEC50 for the listed molecules
Keep it numeric: pEC50 is minus log10 of the concentration in mol/L.

Below, 2 molecules whose answers are already recorded.
>>> print(df.to_string())
                              sample_smiles  metric  result
0  CCC(CC)COC(=O)[C@H](C)N[P@](=O)(OC[C@H]1O[C@@](C#N)(c2ccc3c(N)ncnn23)[C@H](O)[C@@H]1O)Oc1ccccc1   pEC50    6.96
1  CC(C)C(=O)OC[C@H]1O[C@@H](n2ccc(NO)nc2=O)[C@H](O)[C@@H]1O   pEC50    5.88

-- ask I have this molecule here, "C[C@H](NC(=O)[C@H](Cc1ccc(O)cc1)NC(=O)OCc1ccccc1)C(=O)C=[N+]=[N-]" , and I need its recorded pEC50.
-- reply 7.16

* * *

# Tested on: SARS-CoV-2
# Experimental protocol: SARS-CoV-2 antiviral assay in VeroE6-eGFP cells (CPE reduction, GFP)
# Measurement context: read-out: EC50 against SARS-CoV-2 in VeroE6-eGFP; CPE reduction (GFP); MOI 0.001; 96 h
Metric: pEC50
Keep it numeric: pEC50 is minus log10 of the concentration in mol/L.

-- ask I have this compound here, "CN1CCN(C(=O)N[C@@H](Cc2ccccc2)C(=O)N[C@H](/C=C/S(=O)(=O)c2ccccc2)CCc2ccccc2)CC1" , and I need its recorded pEC50.
-- reply 6.27

* * *

# Test system: A549-hACE2 cells
# Experimental protocol: Cytotoxicity in uninfected A549-hACE2 cells (ATPlite)
# Measurement context: read-out: CC50 in A549-hACE2; Toxicity (ATPlite), uninfected cells
Metric: CC50

                                   molecule     result
0  CN1CCN(C(=O)N[C@@H](Cc2ccccc2)C(=O)N[C@H](/C=C/S(=O)(=O)c2ccccc2)CCc2ccccc2)CC1 [K777]  > 0.05 µM

-- ask Which measured CC50 belongs to COc1cccc2[nH]c(C(=O)N[C@@H](CC(C)C)C(=O)N[C@@H](C[C@@H]3CCNC3=O)C(=O)CO)cc12 [PF-00835231] , tested on A549-hACE2 cells?
-- reply > 12.5 µM

* * *

# Tested on: SARS-CoV-2 pseudovirus (SARS2pp)
# Experimental protocol: microbe, parasite or virus in culture
# Format: cell-based
# Measurement context: Severe acute respiratory syndrome-related coronavirus, VeroE6/TMPRSS2; SARS2pp; mean ± SD; unit inferred, [µM] only in axis labels; read-out: VeroE6 TMPRSS2: EC50 (Figure 6)
Where a name gives a salt, the structure may show the parent alone.
Metric: EC50 (µM)
Enter your answer as a number in µM; do not include the unit.

-- ask I have this compound here, CN(C)C(=O)COC(=O)Cc1ccc(OC(=O)c2ccc(NC(=N)N)cc2)cc1 [Camostat mesylate, camostat mesylate] , and I need its recorded EC50.
-- reply 18

* * *

# Tested on: HCoV-229E
# Experimental protocol: microbe, parasite or virus in culture
# Type: cell-based, human coronavirus 229E
# Measurement context: HCI (dsRNA stain), 24 h at 35 °C, read-out: EC50 against HCoV-229E in HeLa-hACE2
Metric: EC50 (nM)
Enter your answer as a number in nM; do not include the unit.

>>> df
                                   molecule  experimental_system  metric  result
0  COc1cccc2[nH]c(C(=O)N[C@@H](CC(C)C)C(=O)N[C@@H](C[C@@H]3CCNC3=O)C(=O)CO)cc12 [PF-00835231]            HCoV-229E    EC50     470
1  C[C@H](NC(=O)[C@H](Cc1ccc(O)cc1)NC(=O)OCc1ccccc1)C(=O)C=[N+]=[N-]            HCoV-229E    EC50      70

-- ask I have this molecule here, CN1CCN(C(=O)N[C@@H](Cc2ccccc2)C(=O)N[C@H](/C=C/S(=O)(=O)c2ccccc2)CCc2ccccc2)CC1 [K777] , and I need its recorded EC50.
-- reply 2
